# METHOD_NOTES: self-splicing fitness, log relative to wild type (ln ratio); higher = more splicing; Tetrahymena group I intron in knt gene, E. coli kanamycin selection, DiMSum; sequences stand for … in CUCUCU…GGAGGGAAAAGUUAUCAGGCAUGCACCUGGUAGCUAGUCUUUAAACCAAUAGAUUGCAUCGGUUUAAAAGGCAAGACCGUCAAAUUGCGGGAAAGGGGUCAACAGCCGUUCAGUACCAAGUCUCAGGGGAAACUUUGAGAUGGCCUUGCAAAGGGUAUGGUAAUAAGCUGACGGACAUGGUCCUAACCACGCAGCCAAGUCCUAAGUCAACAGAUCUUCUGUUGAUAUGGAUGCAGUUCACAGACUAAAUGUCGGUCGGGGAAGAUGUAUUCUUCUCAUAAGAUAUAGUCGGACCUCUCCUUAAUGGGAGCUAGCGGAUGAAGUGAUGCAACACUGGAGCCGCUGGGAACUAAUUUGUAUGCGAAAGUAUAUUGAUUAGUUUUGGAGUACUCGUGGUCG;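 further: selection with 25 µg/mL kanamycin versus none on LB agar overnight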
# MEASUREMENT_CONTEXT: 37 °C
Please note: condition met applies when self-splicing fitness (ln) is -1 or greater, and condition not met applies otherwise.

{"RESIDUE_CODES": "AUUGAGCAAUAUUACGCACA", "ASSIGNED_CLASS": "condition not met"}
{"RESIDUE_CODES": "CCUUAGCAAUAUUACGGAGU", "ASSIGNED_CLASS": "condition not met"}
{"RESIDUE_CODES": "CACGAGCAAUAUUACGGGUU", "ASSIGNED_CLASS": "condition not met"}

State whether the measured self-splicing fitness (ln) reaches -1, counting equality as reaching it, for CAAUAGCAAUAUUACGAGUA condition not met

State whether the measured self-splicing fitness (ln) reaches -1, counting equality as reaching it, for UCAGAGCAAUAUUACGUCGU condition met

State whether the measured self-splicing fitness (ln) reaches -1, counting equality as reaching it, for AUGUAGCAAUAUUACGUAUU condition not met

State whether the measured self-splicing fitness (ln) reaches -1, counting equality as reaching it, for AUGUAGCAAUAUUACGACGG condition not met

State whether the measured self-splicing fitness (ln) reaches -1, counting equality as reaching it, for UACCAGCAAUAUUACGAGUG condition met

State whether the measured self-splicing fitness (ln) reaches -1, counting equality as reaching it, for GUUCAGCAAUAUUACGUGAC condition not met

State whether the measured self-splicing fitness (ln) reaches -1, counting equality as reaching it, for CCAAAGCAAUAUUACGGUUA condition not met

State whether the measured self-splicing fitness (ln) reaches -1, counting equality as reaching it, for ACUUAGCAAUAUUACGUUGG condition not met

====

# METHOD_NOTES: self-splicing fitness, log relative to wild type (ln ratio); higher = more splicing; Tetrahymena group I intron in knt gene, E. coli kanamycin selection, DiMSum; sequences stand for … in CUCUCU…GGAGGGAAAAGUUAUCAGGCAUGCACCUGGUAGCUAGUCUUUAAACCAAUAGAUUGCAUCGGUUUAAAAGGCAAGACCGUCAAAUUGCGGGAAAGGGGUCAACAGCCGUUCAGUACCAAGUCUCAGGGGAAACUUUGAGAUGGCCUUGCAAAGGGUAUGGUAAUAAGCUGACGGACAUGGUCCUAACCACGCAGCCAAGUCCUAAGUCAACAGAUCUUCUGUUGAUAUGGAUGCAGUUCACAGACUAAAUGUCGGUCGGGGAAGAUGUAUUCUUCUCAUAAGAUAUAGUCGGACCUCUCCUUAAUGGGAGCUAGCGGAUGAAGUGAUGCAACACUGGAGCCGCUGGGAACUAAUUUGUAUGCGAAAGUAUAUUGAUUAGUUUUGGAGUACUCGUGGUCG
# MEASUREMENT_CONTEXT: 30 °C
Please note: 1 (yes) applies when self-splicing fitness (ln) is -3 or greater, and 0 (no) applies otherwise.

# count of solved cases: 10
{"RESIDUE_CODES": "UUAUAGCAAUAUUACGAUUU", "ASSIGNED_CLASS": "1 (yes)"}
{"RESIDUE_CODES": "GUGAAGCAAUAUUACGGAUC", "ASSIGNED_CLASS": "1 (yes)"}
{"RESIDUE_CODES": "AACUAGCAAUAUUACGCGUC", "ASSIGNED_CLASS": "1 (yes)"}
{"RESIDUE_CODES": "UCUGAGCAAUAUUACGGUUG", "ASSIGNED_CLASS": "0 (no)"}
{"RESIDUE_CODES": "GGUCAGCAAUAUUACGGUCG", "ASSIGNED_CLASS": "1 (yes)"}
{"RESIDUE_CODES": "CGGAAGCAAUAUUACGUUCC", "ASSIGNED_CLASS": "1 (yes)"}
{"RESIDUE_CODES": "UUUUAGCAAUAUUACGUGGG", "ASSIGNED_CLASS": "1 (yes)"}
{"RESIDUE_CODES": "UUACAGCAAUAUUACGGACU", "ASSIGNED_CLASS": "1 (yes)"}
{"RESIDUE_CODES": "AAGGAGCAAUAUUACGCCGU", "ASSIGNED_CLASS": "1 (yes)"}
{"RESIDUE_CODES": "UCAUAGCAAUAUUACGCCGU", "ASSIGNED_CLASS": "0 (no)"}

State whether the measured self-splicing fitness (ln) reaches -3, counting equality as reaching it, for CGACAGCAAUAUUACGAAAU 0 (no)

State whether the measured self-splicing fitness (ln) reaches -3, counting equality as reaching it, for GCACAGCAAUAUUACGAUGG 1 (yes)

State whether the measured self-splicing fitness (ln) reaches -3, counting equality as reaching it, for GAAUAGCAAUAUUACGUUAC 1 (yes)

State whether the measured self-splicing fitness (ln) reaches -3, counting equality as reaching it, for GGGCAGCAAUAUUACGCACG 1 (yes)

State whether the measured self-splicing fitness (ln) reaches -3, counting equality as reaching it, for UCGCAGCAAUAUUACGGGCA 1 (yes)

State whether the measured self-splicing fitness (ln) reaches -3, counting equality as reaching it, for CUGCAGCAAUAUUACGUGCG 1 (yes)

State whether the measured self-splicing fitness (ln) reaches -3, counting equality as reaching it, for UAGCAGCAAUAUUACGACAU 1 (yes)
